The reported measurements were obtained from paper PMC3047451.

- Tested On: δ-opioid receptor (Homo sapiens)
- Sequence (P41143 whole entry): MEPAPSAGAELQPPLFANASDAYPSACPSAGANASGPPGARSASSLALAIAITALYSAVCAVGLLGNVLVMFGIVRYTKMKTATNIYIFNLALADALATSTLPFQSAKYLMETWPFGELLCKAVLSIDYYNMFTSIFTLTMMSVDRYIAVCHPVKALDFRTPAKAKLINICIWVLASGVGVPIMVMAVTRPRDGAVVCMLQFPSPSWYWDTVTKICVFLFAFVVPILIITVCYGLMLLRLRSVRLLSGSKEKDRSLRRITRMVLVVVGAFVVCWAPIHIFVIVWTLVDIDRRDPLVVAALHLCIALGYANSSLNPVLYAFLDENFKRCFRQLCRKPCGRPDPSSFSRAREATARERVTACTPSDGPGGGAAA
- Test Summary: biochemical
- Type: binding
- Assay Setup: read-out: Ki, δ; 125I-IOXY, hDOR-CHO, n = 3 (± SD)
Please provide measured pKi for the entries that follow.
Would you please state pKi, meaning minus log10 of the concentration in mol/L, as a bare number?

Entry Oc1cccc([C@]23CCC[C@H](C2)N(C[C@H]2C[C@@H]2c2ccccc2)CC3)c1 [(+)−29] — recorded pKi = 6.78

Entry Oc1cccc([C@@]23CCC[C@@H](C2)N(C[C@H]2C[C@@H]2c2ccccc2)CC3)c1 [(+)−30] — recorded pKi = 6.74

Entry Oc1cccc([C@]23CCC[C@H](C2)N(C[C@@H]2C[C@H]2c2ccccc2)CC3)c1 [(−)−30] — recorded pKi = 6.70

Entry Oc1cccc([C@@]23CCC[C@@H](C2)N(C[C@@H]2C[C@@H]2c2ccccc2)CC3)c1 [(−)−31] — recorded pKi = 6.21
